Values were extracted from patent US4147787A.

Tested on: A.D.P. induced blood-platelet aggregation
Assay: A.D.P. induced blood-platelet aggregation
Format: in vivo, Wistar rats
Conditions: Rattus norvegicus, po; 100 mg/kg orally, rats, 3 hours after treatment, 10 μM A.D.P. solution; read-out: Percent inhibition of blood-platelet aggregation, A.D.P.
readout name: inhibition at 100 mg/kg (%)

> print(dat)
                                    molecule                           measured.target             readout.name  observed.value
 1  O=C(O)C1Cc2sccc2CN1Cc1ccccc1Cl (stereo not drawn)  A.D.P. induced blood-platelet aggregation  inhibition at 100 mg/kg            63.9
 2  O=C(O)C1Cc2sc(Cl)cc2CN1 (stereo not drawn)  A.D.P. induced blood-platelet aggregation  inhibition at 100 mg/kg            63.1
 3  O=C(OCc1ccccc1F)[C@H]1[C@@H](O)c2ccsc2CN1Cc1ccccc1F (relative stereo)  A.D.P. induced blood-platelet aggregation  inhibition at 100 mg/kg            62.2
 4   CN1Cc2ccsc2CC1C(=O)O (stereo not drawn)  A.D.P. induced blood-platelet aggregation  inhibition at 100 mg/kg            61.6
 5  O=C(OCc1ccccc1)[C@H]1[C@@H](O)c2ccsc2CN1Cc1ccccc1 (relative stereo)  A.D.P. induced blood-platelet aggregation  inhibition at 100 mg/kg            60.5
 6  CCOC(=O)C1Cc2sccc2CN1C (stereo not drawn)  A.D.P. induced blood-platelet aggregation  inhibition at 100 mg/kg            60.8
 7  COc1cc(COC(=O)C2Cc3sccc3CN2Cc2cc(OC)c(OC)c(OC)c2)cc(OC)c1OC (stereo not drawn)  A.D.P. induced blood-platelet aggregation  inhibition at 100 mg/kg            61.2
 8  O=C(O)[C@@H]1NCc2ccsc2[C@@H]1O (relative stereo)  A.D.P. induced blood-platelet aggregation  inhibition at 100 mg/kg            63.8
 9  O=C(OCc1ccccc1)C1Cc2ccsc2CN1Cc1ccccc1 (stereo not drawn)  A.D.P. induced blood-platelet aggregation  inhibition at 100 mg/kg            60.4
10  COC(=O)C1Cc2sc(Cl)cc2CN1Cc1ccccc1Cl (stereo not drawn)  A.D.P. induced blood-platelet aggregation  inhibition at 100 mg/kg            62.4
11  O=C(OCc1ccccc1)C1Cc2sccc2CN1Cc1ccccc1 (stereo not drawn)  A.D.P. induced blood-platelet aggregation  inhibition at 100 mg/kg            61.6
12  COC(=O)C1Cc2sc(Cl)cc2CN1 (stereo not drawn)  A.D.P. induced blood-platelet aggregation  inhibition at 100 mg/kg            62.7
13  O=C(OCc1ccccc1Cl)[C@H]1[C@@H](O)c2sccc2CN1Cc1ccccc1Cl (relative stereo)  A.D.P. induced blood-platelet aggregation  inhibition at 100 mg/kg            61.8
14  O=C(OCc1ccccc1Cl)C1Cc2sccc2CN1Cc1ccccc1Cl (stereo not drawn)  A.D.P. induced blood-platelet aggregation  inhibition at 100 mg/kg            64.4
15  O=C(O)[C@@H]1NCc2sccc2[C@@H]1O (relative stereo)  A.D.P. induced blood-platelet aggregation  inhibition at 100 mg/kg            62.3
